- experimental.system: HLA-A*02:01 (Homo sapiens, UniProt P04439, D140Y/D185E/D98H/E176V/E277Q/G131W/G231S/I119V/I121R/I166T/I218V/L300P/L318F/N151K/N90K/P208A/P217A/Q86G/Q94H/R138H/R169H/T345S)
- assay.text: MHC binding assay (UV-ligand exchange, β2m ELISA, peptide exchange yield)
- condition.notes: MHC class I binding score; binding to HLA-A*02:01 ranged by peptide exchange yield (UV-ligand exchange, β2m ELISA)
readout.type: Peptide exchange

Example entries and their recorded answers appear below.
103 (TLAEEVVAL; listed as Homo sapiens) [compound 103]	“+++” (≧50 = +++)
448 (NLLETKLQL; listed as Homo sapiens) [compound 448]	“+++” (≧50 = +++)
374 (FLLQQHLISA; listed as Homo sapiens) [compound 374]	“++” (≧20% = ++)
362 (TLYGLSVLL; listed as Homo sapiens) [compound 362]	“+++” (≧50 = +++)
523 (YQIPRTFTL; listed as Homo sapiens) [compound 523]	“++” (≧20% = ++)

For each of the items listed, what is its Peptide exchange?
1. 475 (LLLNEEALAQI; listed as Homo sapiens) [compound 475]
2. 239 (AAFAGKLLSV; listed as Homo sapiens) [compound 239]
3. 207 (GLTSTNAEV; listed as Homo sapiens) [compound 207]
4. 612 (YLYNEGLSV; listed as Homo sapiens) [compound 612]

a:
1: “+++” (≧50 = +++); 2: “+++” (≧50 = +++); 3: “++” (≧20% = ++); 4: “+++” (≧50 = +++)

For each of the items listed, what is its Peptide exchange?
1. 324 (FLYDEIEAEV; listed as Homo sapiens) [compound 324]
2. 488 (FLAEDPKVTL; listed as Homo sapiens) [compound 488]

a:
1: “+++” (≧50 = +++); 2: “+++” (≧50 = +++)

----------
- experimental.system: HLA-A*02:01 (Homo sapiens, UniProt P04439, D140Y/D185E/D98H/E176V/E277Q/G131W/G231S/I119V/I121R/I166T/I218V/L300P/L318F/N151K/N90K/P208A/P217A/Q86G/Q94H/R138H/R169H/T345S)
- assay.text: MHC binding assay (UV-ligand exchange, β2m ELISA, peptide exchange yield)
- condition.notes: MHC class I binding score; binding to HLA-A*02:01 ranged by peptide exchange yield (UV-ligand exchange, β2m ELISA)
readout.type: Peptide exchange

341 (SQIALNEKLVNL; listed as Homo sapiens) [compound 341]	“+++” (≧50 = +++)
505 (SLAPGDVVRQV; listed as Homo sapiens) [compound 505]	“++” (≧20% = ++)
276 (ALFTFSPLTV; listed as Homo sapiens) [compound 276]	“+++” (≧50 = +++)
35 (KINDTIYEV; listed as Homo sapiens) [compound 35]	“+++” (≧50 = +++)

q: Provide one value: measured Peptide exchange of 431 (SLVNVVPKL; listed as Homo sapiens) [compound 431]
a: “++” (≧20% = ++)

----------
- experimental.system: HLA-A*02:01 (Homo sapiens, UniProt P04439, D140Y/D185E/D98H/E176V/E277Q/G131W/G231S/I119V/I121R/I166T/I218V/L300P/L318F/N151K/N90K/P208A/P217A/Q86G/Q94H/R138H/R169H/T345S)
- assay.text: MHC binding assay (UV-ligand exchange, β2m ELISA, peptide exchange yield)
- condition.notes: MHC class I binding score; binding to HLA-A*02:01 ranged by peptide exchange yield (UV-ligand exchange, β2m ELISA)
readout.type: Peptide exchange

443 (GLWEIENNPTV; listed as Homo sapiens) [compound 443]	“+++” (≧50 = +++)
498 (KLWTGGLDNTV; listed as Homo sapiens) [compound 498]	“+++” (≧50 = +++)
198 (KTINKVPTV; listed as Homo sapiens) [compound 198]	“+++” (≧50 = +++)
